src = the supplement of paper PMC10567573

The reader will find reported protein stability index values listed item by item below.
B1: GLT8D2 (parent)
chain: QEAKLLHWNGRHKPWDFPSVHNDL

variants of: B1; experiment: protein stability index of a GFP-peptide fusion (GPS, HEK-293T) (PSI 1-6); higher = more stable; conditions: c terminus: a fixed tail appended;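 note: lentivirally expressed fusions sorted by FACS into six bins by GFP to DsRed ratio, PSI derived from sequencing read proportions per bin multiplied by bin number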
Response field accepts a number only; no unit should be typed.

As a guide, the following entries are already answered.
VAR	RECORDED RESULT
N9P	2.56
A3S	2.69

Sample E2M — what was its protein stability index? 1.45

# get_value(readout='protein stability index', item= P18A ) 2.23

Report protein stability index for G10L please. 2.42

So what does the record say about protein stability index for S19D ? 3.43

Look up protein stability index for this variant: D23G 2.23

Sample H21Q — what was its protein stability index? 2.94
